# STUDY_SYSTEM: T1, mouse tissue factor pathway inhibitor (TFPI) (mouse, UniProt O54819 29-289, limits assumed)
# T1 construct: bought; also called mTFPI; murine TFPI
# T1 sequence (looked up): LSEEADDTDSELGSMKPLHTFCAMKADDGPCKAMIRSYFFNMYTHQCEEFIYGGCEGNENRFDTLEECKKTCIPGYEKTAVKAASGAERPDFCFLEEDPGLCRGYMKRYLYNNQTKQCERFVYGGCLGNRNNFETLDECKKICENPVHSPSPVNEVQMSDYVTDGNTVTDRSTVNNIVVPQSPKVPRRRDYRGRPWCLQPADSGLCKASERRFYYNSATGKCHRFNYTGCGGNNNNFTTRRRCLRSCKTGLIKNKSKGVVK
# ASSAY_PROCEDURE: SPR, TFPI immobilized
READOUT_LABEL: koff (s⁻¹)
Note: unit s⁻¹ is implicit; provide only the numeric part.

BINDER	VALUE_UNITS	koff
2A8 HC_S31P (Fab, V domains shown, also called 2A8-2) VH: QVQLVESGGGLVQPGGSLRLSCAASGFTFRPYGMSWVRQAPGKGLEWVSSIRGSSSSTYYADSVKGRFTISRDNSKNTLYLQMNSLRAEDTAVYYCARKYRYWFDYWGQGTLVTVSS VL: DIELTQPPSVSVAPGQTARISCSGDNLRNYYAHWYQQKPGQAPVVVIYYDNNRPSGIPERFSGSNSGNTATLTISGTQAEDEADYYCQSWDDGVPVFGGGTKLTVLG	s⁻¹	0.00316
2A8 LC_D91W (Fab, V domains shown, also called 2A8-17) VH: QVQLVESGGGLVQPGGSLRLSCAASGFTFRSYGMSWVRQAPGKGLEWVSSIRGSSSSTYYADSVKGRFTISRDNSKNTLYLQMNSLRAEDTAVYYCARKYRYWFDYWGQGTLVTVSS VL: DIELTQPPSVSVAPGQTARISCSGDNLRNYYAHWYQQKPGQAPVVVIYYDNNRPSGIPERFSGSNSGNTATLTISGTQAEDEADYYCQSWWDGVPVFGGGTKLTVLG	s⁻¹	0.00232
4B7 wild-type Fab (Fab, V domains shown, Fab with HA (or c-myc) and 6xHis tag at the C-terminus of the heavy chain; also called 4B7wt; parental 4B7) VH: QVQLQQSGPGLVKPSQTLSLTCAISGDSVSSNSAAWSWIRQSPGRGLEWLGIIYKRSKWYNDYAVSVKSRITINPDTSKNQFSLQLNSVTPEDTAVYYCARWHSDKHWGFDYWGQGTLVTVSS VL: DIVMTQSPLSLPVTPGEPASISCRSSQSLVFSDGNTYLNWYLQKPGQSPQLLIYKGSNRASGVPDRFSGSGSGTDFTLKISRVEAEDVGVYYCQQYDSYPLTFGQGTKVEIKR	s⁻¹	0.128

Now consider the entry below.
Retrieve koff measured for 2A8 wild-type Fab (Fab, V domains shown, Fab with c-myc (or HA, or none) and 6xHis tag at the C-terminus of the heavy chain; also called 2A8wt; 2A8 wt) VH: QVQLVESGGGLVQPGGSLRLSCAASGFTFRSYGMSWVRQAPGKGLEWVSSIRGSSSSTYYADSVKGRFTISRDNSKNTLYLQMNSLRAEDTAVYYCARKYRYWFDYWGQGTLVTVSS VL: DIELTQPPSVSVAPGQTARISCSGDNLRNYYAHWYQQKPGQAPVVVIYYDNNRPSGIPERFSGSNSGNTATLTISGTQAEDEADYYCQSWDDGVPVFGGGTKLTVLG and print it.
0.00517
